# System: rice
# experiment-description: Low temperature assay on rice seedlings
# Assay type: in vivo
# reported-conditions: 0.01 mg/l, 2 °C, 6 days
property-label: Weight of root (g)
Give just the number in g; leave the unit off.

{"compound": "CC[C@@H](C(C)C)[C@@H](O)[C@H](O)[C@@H](C)[C@H]1CCC2C3COC(=O)C4C[C@H](O)[C@H](O)C[C@]4(C)C3CC[C@@]21C (stereo partly drawn)", "experimental-system": "rice", "u": "g", "Weight of root": 3.1}
{"compound": "C=C(C(C)C)[C@@H](O)[C@H](O)[C@@H](C)[C@H]1CCC2C3COC(=O)C4C[C@H](O)[C@H](O)C[C@]4(C)C3CC[C@@]21C (stereo partly drawn)", "experimental-system": "rice", "u": "g", "Weight of root": 3.1}

Report Weight of root for CC(C)[C@H](C)[C@@H](O)[C@H](O)[C@@H](C)[C@H]1CCC2C3COC(=O)C4C[C@H](O)[C@H](O)C[C@]4(C)C3CC[C@@]21C (stereo partly drawn) please.
3.0

FYI, the data here is from patent US9326506B2.
